SYSTEM: recombinant human KDM5B (Homo sapiens, UniProt Q9UGL1)
Sequence (Q9UGL1 374-755 limits assumed): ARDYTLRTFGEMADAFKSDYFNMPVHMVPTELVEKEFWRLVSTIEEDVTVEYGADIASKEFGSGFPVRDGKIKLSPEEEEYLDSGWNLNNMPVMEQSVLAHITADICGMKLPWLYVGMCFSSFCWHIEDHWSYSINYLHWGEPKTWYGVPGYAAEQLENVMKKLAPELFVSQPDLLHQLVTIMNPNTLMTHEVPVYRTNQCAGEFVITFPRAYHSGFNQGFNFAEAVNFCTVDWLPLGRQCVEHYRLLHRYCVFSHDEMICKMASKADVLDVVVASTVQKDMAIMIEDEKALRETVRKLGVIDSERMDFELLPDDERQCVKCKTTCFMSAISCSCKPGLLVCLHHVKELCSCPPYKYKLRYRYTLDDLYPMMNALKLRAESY
ASSAY TEXT: 14CO2 capture enzymatic assay (decarboxylation of [1-14C] αKG), KDM5B
CONDITION DETAILS: 10 μM [1-14C] αKG, 90 μM non-labeled αKG, 50 μM peptide substrate, 37° C., 1 hour, final 1% DMSO
Measured IC50 values are reported for all entries that follow.
Reply with just the number (in µM).

Use these answered entries as a reference point.
{"COMPOUND STRUCTURE STRING": "N#Cc1cc(Cc2c(Cl)cc(C(F)(F)F)cc2Cl)nc(C(=O)CCC(=O)O)c1O", "UNIT INFO": "µM", "IC50": 0.36}
{"COMPOUND STRUCTURE STRING": "CSc1cc(C#N)c(O)c(C(=O)CCC(=O)O)n1", "UNIT INFO": "µM", "IC50": 0.24}
{"COMPOUND STRUCTURE STRING": "Cc1ccc(-c2cc(C#N)c(O)c(C(=O)CCC(=O)O)n2)c(Cl)c1", "UNIT INFO": "µM", "IC50": 0.46}
{"COMPOUND STRUCTURE STRING": "Cc1cccc(Cc2cc(C#N)c(O)c(C(=O)CCC(=O)O)n2)c1", "UNIT INFO": "µM", "IC50": 0.06}

Could you now look at the following molecule, please?
Entry under test: "COc1cccc(Cl)c1Cc1cc(C#N)c(O)c(C(=O)CCC(=O)O)n1" . Its IC50 was 0.08

###

Items are presented alongside their recorded IC50.
SYSTEM: recombinant human KDM4A (Homo sapiens, UniProt O75164)
Sequence (O75164 1-359 limits assumed): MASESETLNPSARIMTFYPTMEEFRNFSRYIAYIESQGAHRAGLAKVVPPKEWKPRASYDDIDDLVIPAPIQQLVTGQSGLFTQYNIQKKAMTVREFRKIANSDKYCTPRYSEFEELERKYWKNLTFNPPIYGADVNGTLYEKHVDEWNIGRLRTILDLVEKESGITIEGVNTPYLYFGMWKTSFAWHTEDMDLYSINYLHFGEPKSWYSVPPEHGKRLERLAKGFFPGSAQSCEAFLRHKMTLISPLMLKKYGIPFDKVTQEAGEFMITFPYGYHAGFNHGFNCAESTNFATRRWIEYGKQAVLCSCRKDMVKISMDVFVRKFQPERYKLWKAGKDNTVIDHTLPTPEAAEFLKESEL
ASSAY TEXT: 14CO2 capture enzymatic assay (decarboxylation of [1-14C] αKG), KDM4A
CONDITION DETAILS: 10 μM [1-14C] αKG, 90 μM non-labeled αKG, 50 μM peptide substrate, 37° C., 1 hour, final 1% DMSO
Could you give me the number in µM? Just the number is fine.

Sample answers from the record:
{"COMPOUND STRUCTURE STRING": "O=C(O)CCC(=O)c1nc(Br)cc(Br)c1O", "IC50 (µM)": 36}
{"COMPOUND STRUCTURE STRING": "N#Cc1cc(Cc2c(Cl)cc(Cl)cc2Cl)nc(C(=O)CCC(=O)O)c1O", "IC50 (µM)": 28}
{"COMPOUND STRUCTURE STRING": "COc1cccc(Cl)c1Cc1cc(C#N)c(O)c(C(=O)CCC(=O)O)n1", "IC50 (µM)": 13}
{"COMPOUND STRUCTURE STRING": "N#Cc1cc(Cc2c(F)cc(F)cc2F)nc(C(=O)CCC(=O)O)c1O", "IC50 (µM)": 34}

Let's switch to this compound now.
Briefly, IC50 measured for "N#Cc1cc(C(F)(F)F)c(O)c(C(=O)CCC(=O)O)n1" : 13

###

SYSTEM: recombinant human KDM4A (Homo sapiens)
ASSAY TEXT: 14CO2 capture enzymatic assay (decarboxylation of [1-14C] αKG), KDM4A
CONDITION DETAILS: 10 μM [1-14C] αKG, 90 μM non-labeled αKG, 50 μM peptide substrate, 37° C., 1 hour, final 1% DMSO
READOUT: IC50

Examples with their reported IC50 follow.
{"COMPOUND STRUCTURE STRING": "O=C(O)CCC(=O)c1nc(C(F)(F)F)cc(C(F)(F)F)c1O", "SYSTEM": "recombinant human KDM4A (Homo sapiens)", "IC50": "3.5 µM"}
{"COMPOUND STRUCTURE STRING": "N#Cc1cc(-c2cccnc2)nc(C(=O)CCC(=O)O)c1O", "SYSTEM": "recombinant human KDM4A (Homo sapiens)", "IC50": "22 µM"}
{"COMPOUND STRUCTURE STRING": "N#Cc1cc(-c2ccccc2)nc(C(=O)CCC(=O)O)c1O", "SYSTEM": "recombinant human KDM4A (Homo sapiens)", "IC50": "> 40 µM"}

IC50 reading for "N#Cc1cc(Cc2ccc(Cl)cc2)nc(C(=O)CCC(=O)O)c1O" : > 40 µM

So, "Cc1ccc(-c2cc(C#N)c(O)c(C(=O)CCC(=O)O)n2)c(C)c1" ? Its IC50 was > 40 µM

Note to self: IC50 recorded for "COc1cccc(-c2cc(C#N)c(O)c(C(=O)CCC(=O)O)n2)c1Cl" was 10 µM

Memo: "N#Cc1cc(-c2ccc(F)cc2Cl)nc(C(=O)CCC(=O)O)c1O" , reported IC50: > 40 µM

For reference, reported IC50 for "N#Cc1cc(Cc2c(F)ccc(F)c2F)nc(C(=O)CCC(=O)O)c1O" stands at 28 µM

Lab book: IC50 of "N#Cc1cc(-c2cccc(F)c2)nc(C(=O)CCC(=O)O)c1O" noted as > 40 µM

###

SYSTEM: recombinant human KDM4A (Homo sapiens)
ASSAY TEXT: 14CO2 capture enzymatic assay (decarboxylation of [1-14C] αKG), KDM4A
CONDITION DETAILS: 10 μM [1-14C] αKG, 90 μM non-labeled αKG, 50 μM peptide substrate, 37° C., 1 hour, final 1% DMSO
READOUT: IC50

{"COMPOUND": "Cc1ccc(Cl)c(-c2cc(C#N)c(O)c(C(=O)CCC(=O)O)n2)c1 [Example 102]", "SYSTEM": "recombinant human KDM4A (Homo sapiens)", "VALUE REPORTED": "> 40 µM"}

Record N#Cc1cc(Cc2c(Cl)cc(OC(F)(F)F)cc2Cl)nc(C(=O)CCC(=O)O)c1O [Example 143] ; system recombinant human KDM4A (Homo sapiens); IC50 = > 40 µM

###

SYSTEM: recombinant human KDM5B (Homo sapiens)
ASSAY TEXT: 14CO2 capture enzymatic assay (decarboxylation of [1-14C] αKG), KDM5B
CONDITION DETAILS: 10 μM [1-14C] αKG, 90 μM non-labeled αKG, 50 μM peptide substrate, 37° C., 1 hour, final 1% DMSO
READOUT: pIC50
Scale for pIC50: -log10 of concentration given in mol/L; no unit attached.

Lookup result for N#Cc1cc(Cc2ccccc2-c2ccccc2)nc(C(=O)CCC(=O)O)c1O [Example 52] ; measured pIC50: 6.52

The molecule N#Cc1cc(Oc2ccc(F)cc2)nc(C(=O)CCC(=O)O)c1O [Example 79] showed pIC50 equal to 6.64

According to the records, this molecule N#Cc1cc(Cc2c(F)cccc2C(F)(F)F)nc(C(=O)CCC(=O)O)c1O [Example 60] displays pIC50 of 6.48

###

This section presents compounds with their documented pIC50 values.
SYSTEM: recombinant human KDM4A (Homo sapiens)
ASSAY TEXT: 14CO2 capture enzymatic assay (decarboxylation of [1-14C] αKG), KDM4A
CONDITION DETAILS: 10 μM [1-14C] αKG, 90 μM non-labeled αKG, 50 μM peptide substrate, 37° C., 1 hour, final 1% DMSO
pIC50: −log10 of the molar value.

{"COMPOUND STRUCTURE STRING": "N#Cc1cc(-c2cccc(C(F)(F)F)c2Cl)nc(C(=O)CCC(=O)O)c1O", "SYSTEM": "recombinant human KDM4A (Homo sapiens)", "pIC50": "< 4.40"}
{"COMPOUND STRUCTURE STRING": "N#Cc1cc(Cc2cccc3ccccc23)nc(C(=O)CCC(=O)O)c1O", "SYSTEM": "recombinant human KDM4A (Homo sapiens)", "pIC50": 4.92}

Here "N#Cc1cc(-c2cccc3ncccc23)nc(C(=O)CCC(=O)O)c1O" was tested on recombinant human KDM4A (Homo sapiens), and its pIC50 came to < 4.40

Lab note: compound "N#Cc1cc(Cc2cccc(OC(F)(F)F)c2)nc(C(=O)CCC(=O)O)c1O" tested on recombinant human KDM4A (Homo sapiens); recorded pIC50 was < 4.40

Measured on recombinant human KDM4A (Homo sapiens), "Cc1cccc(C)c1Cc1cc(C#N)c(O)c(C(=O)CCC(=O)O)n1" has a documented pIC50 of 5.31

###

SYSTEM: recombinant human KDM5B (Homo sapiens, UniProt Q9UGL1)
ASSAY TEXT: 14CO2 capture enzymatic assay (decarboxylation of [1-14C] αKG), KDM5B
CONDITION DETAILS: 10 μM [1-14C] αKG, 90 μM non-labeled αKG, 50 μM peptide substrate, 37° C., 1 hour, final 1% DMSO
Procedure: Enzymatic activity was determined based on the capture of ^14CO2 released by the decarboxylation of [1-^14C] αKG (Zhang et al., Anal. Biochem., 1998, vol. 271, pp. 137-142). [1-^14C]alphaketoglutarate (αKG) was from Perkin-Elmer, H3K4me3 and H3K9me3 peptides were from Mimotopes. All other reagents were from Sigma. […] The dry filter paper was exposed to a storage phosphor screen for 24-72 hours and the images recorded using a Typhoon FLA 7000 Imager (Amersham Biosciences, Piscataway, NJ). […]
just bin them by IC50: category 1 = under 200 nM, category 2 = from 200 nM up to 300 nM, category 3 = 300 nM and over

Challenge: Given "Cc1noc(C)c1Cc1cc(C#N)c(O)c(C(=O)CCC(=O)O)n1" , name the class its IC50 places it in.
Response given: category 2

Challenge: Which category does the recorded IC50 put "Cc1ccc(C#N)cc1-c1cc(C#N)c(O)c(C(=O)CCC(=O)O)n1" in?
Response given: category 3
